Every entry's value here was drawn from ChEMBL document CHEMBL1909046.

- assayDetails: DRUGMATRIX: beta-Lactamase enzyme inhibition (substrate: Nitrocefin)
- Parameters: species or system Bacillus cereus
- assaySetup: Not Active = under 50% inhibition at 10 µM
quantityKind: Ki

## Task Name the recorded Ki for "COLISTIN" .
## Result Not Active

## Task Would you mind telling me what Ki value was observed for ZIRCONIUM(IV) CHLORIDE ?
## Result Not Active

## Task Give the measured Ki of COBALTOUS CHLORIDE .
## Result Not Active

## Task I would be grateful if you could share the reported Ki for "TRANSPLATIN" .
## Result Not Active

###

- assaySystem: Cysteinyl leukotriene receptor 1 (Homo sapiens); further: in other assays of this panel Not Active means under 50% inhibition at 10 µM
- Sequence (Q9Y271 whole entry): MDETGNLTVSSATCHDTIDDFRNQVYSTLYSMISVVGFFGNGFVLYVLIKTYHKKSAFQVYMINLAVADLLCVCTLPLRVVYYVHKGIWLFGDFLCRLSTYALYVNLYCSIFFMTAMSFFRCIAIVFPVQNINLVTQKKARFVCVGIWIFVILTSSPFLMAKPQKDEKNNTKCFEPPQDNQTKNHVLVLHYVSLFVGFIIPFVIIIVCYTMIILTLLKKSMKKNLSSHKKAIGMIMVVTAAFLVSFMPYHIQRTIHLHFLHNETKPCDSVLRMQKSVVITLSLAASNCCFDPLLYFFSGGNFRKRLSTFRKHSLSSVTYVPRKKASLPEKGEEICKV
- Assay type: cell membranes, Membrane
- assaySetup: cho-k1
quantityKind: IC50

## Task Recorded IC50 of "C[C@]12C=CC(=O)C=C1CC[C@H]1[C@@H]3C[C@@H](O)[C@](O)(C(=O)CO)[C@@]3(C)C[C@H](O)[C@@]12F" , please.
## Result Not Active

## Task IC50 for "CC(C)C[C@H]1C(=O)N2CCC[C@H]2[C@]2(O)O[C@](NC(=O)[C@@H]3C=C4c5cccc6[nH]cc(c56)C[C@H]4N(C)C3)(C(C)C)C(=O)N12" ?
## Result Not Active

## Task # query: IC50 of entry "CC(O)(P(=O)(O)O)P(=O)(O)O"
## Result Not Active

## Task What value of measured IC50 is listed for "NNCCc1ccccc1" ?
## Result Not Active
